The reported numbers originate from patent US20210127673A1.

- Test system: Lolium perenne (LOLPE)
- Protocol: Pre-emergence herbicidal activity, Lolium perenne
- Type: in vivo
- Details: 1000 g/ha, evaluated after 13 days
Examples of compounds with documented Control of LOLPE after pre-emergence application (score 0-5) follow.
Please state the value as a number alone, without comment.

For orientation, consider the following solved cases.
Compound	Obs value
CC(C)(C)OC(=O)Nc1ccc(-c2cncc(Cl)c2)nc1C(F)(F)F	1
C#CC(C)(C)NC(=O)Nc1ccc(-c2cncc(F)c2)nc1C(F)(F)F	2
COC(=O)c1nc(-c2cncc(F)c2)ccc1N(C(=O)OC(C)(C)C)C(=O)OC(C)(C)C	0
O=C(Nc1ccc(-c2cncc(F)c2)nc1C(F)(F)F)N1CC[S+]([O-])C1 (centres unmarked)	1
CNC(=O)N(C)c1ccc(-c2cncc(F)c2)nc1C(F)(F)F	1
O=C(Nc1ccc(-c2cncc(F)c2)nc1C(F)(F)F)OCC(F)(F)F	1

**Query** Returns the measured Control of LOLPE after pre-emergence application (score 0-5) for the input compound. Input: "CC(C)(C)OC(=O)Nc1ccc(-c2cncc(C#N)c2)nc1C(F)(F)F"
**Result** 1

**Query** Any idea what its Control of LOLPE after pre-emergence application (score 0-5) is? The compound is CCC(C)OC(=O)Nc1ccc(-c2cncc(F)c2)nc1C(F)(F)F (centres unmarked)
**Result** 0

* * *

- Test system: Lolium perenne (LOLPE)
- Protocol: Pre-emergence herbicidal activity, Lolium perenne
- Type: in vivo
- Details: 1000 g/ha, evaluated after 13 days
Quantity: Control of LOLPE after pre-emergence application (score 0-5)
Would you mind answering with just the numeric figure?

Solved entries (count: 5):
Compound	Obs value
O=C(Nc1ccc(-c2cncc(F)c2)nc1C(F)(F)F)N1CCOCC1	1
CCCOC(=O)Nc1ccc(-c2cncc(F)c2)nc1C(F)(F)F	1
CN1CCN(C(=O)Nc2ccc(-c3cncc(F)c3)nc2C(F)(F)F)CC1	1
COC(=O)CN(C(=O)OC(C)(C)C)c1ccc(-c2cncc(F)c2)nc1C(F)(F)F	0
CN(C(N)=O)c1ccc(-c2cncc(F)c2)nc1C(F)(F)F	0

**Query** Please give the measured Control of LOLPE after pre-emergence application (score 0-5) for this compound: "C#CCNC(=O)Nc1ccc(-c2cncc(F)c2)nc1C(F)(F)F"
**Result** 1

**Query** Fill in: Control of LOLPE after pre-emergence application (score 0-5) of "CC(C)OC(=O)Nc1ccc(-c2cncc(F)c2)nc1C#N" is ___
**Result** 0

**Query** Which value of Control of LOLPE after pre-emergence application (score 0-5) has been reported for "CON(C)C(=O)Nc1ccc(-c2cncc(F)c2)nc1C(F)(F)F" in the records?
**Result** 0

**Query** Quick one: Control of LOLPE after pre-emergence application (score 0-5) of "O=C(Nc1ccc(-c2cncc(F)c2)nc1C(F)(F)F)NC1CC1" ?
**Result** 1

**Query** For the compound shown here, "C=CCN(C(=O)OC(C)(C)C)c1ccc(-c2cncc(F)c2)nc1C(F)(F)F" , give the reported Control of LOLPE after pre-emergence application (score 0-5).
**Result** 2

* * *

- Tested on: Avena fatua (AVEFA)
- Protocol: Pre-emergence herbicidal activity, Avena fatua
- Format: in vivo
- Details: 250 g/ha, evaluated after 13 days
Each entry below carries its recorded Control of AVEFA after pre-emergence application (score 0-5).
The reply should be a number, written without any unit.

Past entries and their recorded results:
CC(C)(C)CNC(=O)Nc1ccc(-c2cncc(F)c2)nc1C(F)(F)F 1
O=C(NCC1CCCCC1)Nc1ccc(-c2cncc(F)c2)nc1C(F)(F)F 1

Field: next compound
**Query** Quick one: Control of AVEFA after pre-emergence application (score 0-5) for "CC(C)(C)COC(=O)Nc1ccc(-c2cncc(F)c2)nc1C(F)(F)F" ?
**Result** 1
